Data provenance is ChEMBL document CHEMBL5346859.

# MEASURED_TARGET: Mitogen-activated protein kinase kinase kinase kinase 2 (Homo sapiens)
# ASSAY_COMMENT: Inhibition of GCK (unknown origin)
PARAMETER_MEASURED: IC50
Please format your answer as a value with the unit trailing.

Could you please provide reported IC50 for CCS(=O)(=O)N1CCN(c2ccc(Nc3ncc(C(N)=O)c(NC4CC4)n3)cc2)CC1 ? Thanks!
4 nM

---

# MEASURED_TARGET: Tyrosine-protein kinase SYK (Homo sapiens)
PARAMETER_MEASURED: pIC50
By convention, pIC50 is the negative base-10 log of a molar concentration.

Could you please provide reported pIC50 for N#CCC1CCN(c2nc(Nc3ccc(N4CCC(O)CC4)cc3)c3c(=O)[nH]ncc3n2)CC1 [GUSACITINIB] ? Thanks!
8.30

---

# MEASURED_TARGET: Serine/threonine-protein kinase Chk1 (Homo sapiens)
# Sequence (O14757 whole entry): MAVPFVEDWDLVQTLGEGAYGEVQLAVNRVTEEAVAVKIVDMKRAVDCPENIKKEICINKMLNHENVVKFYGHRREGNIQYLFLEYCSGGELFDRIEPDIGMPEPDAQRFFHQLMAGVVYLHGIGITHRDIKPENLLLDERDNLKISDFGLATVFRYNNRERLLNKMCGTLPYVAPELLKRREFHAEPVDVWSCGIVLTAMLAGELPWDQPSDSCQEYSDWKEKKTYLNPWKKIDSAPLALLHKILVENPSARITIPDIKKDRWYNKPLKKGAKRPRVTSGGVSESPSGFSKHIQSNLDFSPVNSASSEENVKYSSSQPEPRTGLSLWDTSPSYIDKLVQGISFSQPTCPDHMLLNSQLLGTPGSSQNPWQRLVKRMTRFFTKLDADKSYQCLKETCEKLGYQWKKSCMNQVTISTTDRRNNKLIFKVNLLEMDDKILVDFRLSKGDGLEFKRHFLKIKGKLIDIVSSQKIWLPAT
PARAMETER_MEASURED: pIC50
By convention, pIC50 is the negative base-10 log of a molar concentration.

Could you please provide reported pIC50 for CCS(=O)(=O)N1CCN(c2ccc(Nc3ncc(C(N)=O)c(NC4CC4)n3)cc2)CC1 [CERDULATINIB] ? Thanks!
8.40

---

# MEASURED_TARGET: Tyrosine-protein kinase JAK2 (Homo sapiens)
# ASSAY_COMMENT: Inhibition of recombinant GST-tagged JAK2 catalytic domain (unknown origin) using pEY (4:1) as substrate incubated for 120 mins in presence of 33P-labeled ATP
PARAMETER_MEASURED: pIC50
By convention, pIC50 is the negative base-10 log of a molar concentration.

Could you please provide reported pIC50 for O=C1Nc2cc(Br)ccc2/C1=C1/Nc2ccccc2/C1=N\OCCN1CCNCC1 ? Thanks!
7.55

---

# MEASURED_TARGET: Non-receptor tyrosine-protein kinase TYK2 (Homo sapiens)
# Sequence (P29597 whole entry): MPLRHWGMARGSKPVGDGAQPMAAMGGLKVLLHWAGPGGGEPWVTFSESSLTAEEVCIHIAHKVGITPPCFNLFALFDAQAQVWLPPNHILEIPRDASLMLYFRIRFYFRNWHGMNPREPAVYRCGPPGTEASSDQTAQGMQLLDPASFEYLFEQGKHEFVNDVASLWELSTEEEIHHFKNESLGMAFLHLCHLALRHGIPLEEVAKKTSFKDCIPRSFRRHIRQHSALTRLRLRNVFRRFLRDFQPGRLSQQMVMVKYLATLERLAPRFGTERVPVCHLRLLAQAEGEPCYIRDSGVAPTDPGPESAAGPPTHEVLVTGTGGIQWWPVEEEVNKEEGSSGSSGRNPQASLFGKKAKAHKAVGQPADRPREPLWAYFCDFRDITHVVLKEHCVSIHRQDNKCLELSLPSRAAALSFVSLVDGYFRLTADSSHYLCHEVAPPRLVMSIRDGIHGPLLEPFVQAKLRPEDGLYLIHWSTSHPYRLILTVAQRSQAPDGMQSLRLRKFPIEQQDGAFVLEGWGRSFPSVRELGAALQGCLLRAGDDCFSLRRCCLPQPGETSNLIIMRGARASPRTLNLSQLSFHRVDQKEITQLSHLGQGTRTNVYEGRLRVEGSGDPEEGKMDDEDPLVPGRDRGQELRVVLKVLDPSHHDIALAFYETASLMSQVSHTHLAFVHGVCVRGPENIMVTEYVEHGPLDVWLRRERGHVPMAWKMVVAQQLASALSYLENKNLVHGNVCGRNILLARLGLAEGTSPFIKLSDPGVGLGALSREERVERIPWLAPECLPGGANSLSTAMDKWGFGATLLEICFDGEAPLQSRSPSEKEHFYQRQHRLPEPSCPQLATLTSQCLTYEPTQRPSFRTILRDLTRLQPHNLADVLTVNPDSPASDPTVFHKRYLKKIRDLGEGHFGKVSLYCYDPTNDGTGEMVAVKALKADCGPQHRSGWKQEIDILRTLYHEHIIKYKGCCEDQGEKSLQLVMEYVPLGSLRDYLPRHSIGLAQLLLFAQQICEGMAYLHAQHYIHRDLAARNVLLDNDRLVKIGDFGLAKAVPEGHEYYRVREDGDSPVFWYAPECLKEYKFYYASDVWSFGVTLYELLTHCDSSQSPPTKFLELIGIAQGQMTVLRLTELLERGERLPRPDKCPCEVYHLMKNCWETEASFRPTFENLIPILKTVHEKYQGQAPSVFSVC
# ASSAY_COMMENT: Inhibition of TYK2 (unknown origin) by flow cytometry analysis
PARAMETER_MEASURED: pIC50
By convention, pIC50 is the negative base-10 log of a molar concentration.

Could you please provide reported pIC50 for N#CCC1CCN(c2nc(Nc3ccc(N4CCC(O)CC4)cc3)c3c(=O)[nH]ncc3n2)CC1 ? Thanks!
8.10

---

# ASSAY_COMMENT: Inhibition of JAK/STAT signaling pathway in human CD4+ve Th cells assessed as inhibition of IL-4 stimulated STAT6 phosphorylation at Y641 residue preincubated for 1 hr followed by IL-4 stimulation and measured after 15 mins by flow cytometry analysis
# Assay type: cell-based
PARAMETER_MEASURED: IC50

Could you please provide reported IC50 for CCS(=O)(=O)N1CCN(c2ccc(Nc3ncc(C(N)=O)c(NC4CC4)n3)cc2)CC1 [CERDULATINIB] ? Thanks!
< 1 µM

---

# MEASURED_TARGET: Tyrosine-protein kinase JAK1 (Homo sapiens, UniProt P23458)
# Sequence (P23458 whole entry): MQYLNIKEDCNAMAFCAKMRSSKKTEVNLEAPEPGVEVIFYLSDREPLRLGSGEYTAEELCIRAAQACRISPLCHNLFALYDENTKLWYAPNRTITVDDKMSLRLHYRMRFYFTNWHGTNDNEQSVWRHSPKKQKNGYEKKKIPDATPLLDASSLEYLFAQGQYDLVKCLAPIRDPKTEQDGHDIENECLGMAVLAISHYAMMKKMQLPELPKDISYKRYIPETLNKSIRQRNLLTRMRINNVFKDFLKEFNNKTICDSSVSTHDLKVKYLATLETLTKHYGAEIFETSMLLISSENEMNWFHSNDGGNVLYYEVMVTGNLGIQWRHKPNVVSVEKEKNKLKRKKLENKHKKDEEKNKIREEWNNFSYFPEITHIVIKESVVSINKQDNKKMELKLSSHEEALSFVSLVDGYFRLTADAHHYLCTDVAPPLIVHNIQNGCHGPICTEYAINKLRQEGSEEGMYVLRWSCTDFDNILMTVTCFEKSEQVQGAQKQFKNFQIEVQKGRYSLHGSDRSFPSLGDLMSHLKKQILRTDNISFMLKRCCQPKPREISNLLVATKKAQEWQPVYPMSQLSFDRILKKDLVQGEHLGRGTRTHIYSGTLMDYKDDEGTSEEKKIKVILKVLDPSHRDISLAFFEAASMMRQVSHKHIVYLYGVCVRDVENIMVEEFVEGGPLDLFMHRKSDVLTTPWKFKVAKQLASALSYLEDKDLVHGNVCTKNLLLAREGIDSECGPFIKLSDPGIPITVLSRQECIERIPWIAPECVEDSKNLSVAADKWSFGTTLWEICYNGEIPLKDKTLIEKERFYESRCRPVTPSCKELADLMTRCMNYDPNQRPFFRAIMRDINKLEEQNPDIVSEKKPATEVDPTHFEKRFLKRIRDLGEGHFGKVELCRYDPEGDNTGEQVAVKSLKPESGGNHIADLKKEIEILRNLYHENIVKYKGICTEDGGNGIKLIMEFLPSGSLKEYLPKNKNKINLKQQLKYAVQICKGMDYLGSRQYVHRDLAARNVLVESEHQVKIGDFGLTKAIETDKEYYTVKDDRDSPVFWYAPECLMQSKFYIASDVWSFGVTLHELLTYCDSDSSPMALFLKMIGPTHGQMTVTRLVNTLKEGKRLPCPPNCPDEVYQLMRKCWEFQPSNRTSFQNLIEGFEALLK
# ASSAY_COMMENT: Inhibition of JAK1 (unknown origin) by flow cytometry analysis
PARAMETER_MEASURED: pIC50
By convention, pIC50 is the negative base-10 log of a molar concentration.

Could you please provide reported pIC50 for N#CCC1CCN(c2nc(Nc3ccc(N4CCC(O)CC4)cc3)c3c(=O)[nH]ncc3n2)CC1 ? Thanks!
7.34

---

# MEASURED_TARGET: Tyrosine-protein kinase JAK2 (Homo sapiens)
# ASSAY_COMMENT: Inhibition of JAK2 (unknown origin) using FAM-labeled peptide as substrate preincubated with compound for 10 mins followed by substrate addition and measured after 60 mins in presence of ATP
Listed here are compounds together with their documented IC50.
Value expressed in nM; do not type the unit.

# CHEMICAL_STRING, OBSERVED_MEASUREMENT
rows = [
    ("CC(=O)c1ccc(NC(=O)N2CCN(c3nc(Nc4ccc(N5CCOCC5)cc4)ncc3Cl)CC2)cc1", 1.8),
]

Attention now turns to another entry.
Could you please provide reported IC50 for CC(=O)c1ccc(NC(=O)N2CCN(c3ccnc(Nc4ccc(N5CCOCC5)cc4)n3)CC2)cc1 ? Thanks!
2.9

---

# MEASURED_TARGET: UniProt:P29597
# ASSAY_COMMENT: Inhibition of recombinant GST-tagged TYK2 catalytic domain (unknown origin) using pEY (4:1) as substrate incubated for 120 mins in presence of 33P-labeled ATP
PARAMETER_MEASURED: IC50 (nM)
Value expressed in nM; do not type the unit.

Provide the reported IC50 (system: UniProt:P29597) for O=C1Nc2cc(Br)ccc2/C1=C1/Nc2ccccc2/C1=N\OCCN1CCNCC1
50

---

# MEASURED_TARGET: Tyrosine-protein kinase JAK2 (Homo sapiens, UniProt O60674)
# ASSAY_COMMENT: Inhibition of JAK2 (unknown origin) by flow cytometry analysis
PARAMETER_MEASURED: IC50
Please format your answer as a value with the unit trailing.

Provide the reported IC50 (system: Tyrosine-protein kinase JAK2 (Homo sapiens, UniProt O60674)) for N#CCC1CCN(c2nc(Nc3ccc(N4CCC(O)CC4)cc3)c3c(=O)[nH]ncc3n2)CC1
4 nM

---

# MEASURED_TARGET: Tyrosine-protein kinase Tec (Homo sapiens, UniProt P42680)
# Sequence (P42680 whole entry): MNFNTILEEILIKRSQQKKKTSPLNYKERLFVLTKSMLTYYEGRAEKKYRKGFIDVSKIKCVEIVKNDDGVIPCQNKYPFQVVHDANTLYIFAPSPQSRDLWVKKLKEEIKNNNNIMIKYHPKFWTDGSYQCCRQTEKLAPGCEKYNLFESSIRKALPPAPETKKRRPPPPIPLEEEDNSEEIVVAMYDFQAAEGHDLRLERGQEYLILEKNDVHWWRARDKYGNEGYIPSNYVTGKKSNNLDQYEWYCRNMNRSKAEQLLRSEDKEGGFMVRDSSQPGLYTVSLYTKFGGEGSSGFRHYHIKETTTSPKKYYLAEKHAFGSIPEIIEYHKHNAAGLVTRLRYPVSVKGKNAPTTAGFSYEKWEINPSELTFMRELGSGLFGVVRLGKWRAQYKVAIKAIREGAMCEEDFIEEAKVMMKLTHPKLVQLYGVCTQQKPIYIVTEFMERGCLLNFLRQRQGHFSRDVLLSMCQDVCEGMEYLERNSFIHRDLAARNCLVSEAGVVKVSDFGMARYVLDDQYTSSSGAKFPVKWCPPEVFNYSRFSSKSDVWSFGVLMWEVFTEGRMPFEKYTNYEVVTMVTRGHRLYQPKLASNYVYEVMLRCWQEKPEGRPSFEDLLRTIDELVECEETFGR
# ASSAY_COMMENT: Inhibition of TEC (unknown origin) in presence of ATP
PARAMETER_MEASURED: IC50 (µM)
Value expressed in µM; do not type the unit.

Could you please provide reported IC50 for C=CC(=O)N1C[C@H](Nc2ncnc3[nH]ccc23)CC[C@@H]1C [RITLECITINIB] ? Thanks!
0.155

---

Listed here are compounds together with their documented IC50.
# MEASURED_TARGET: Receptor-type tyrosine-protein kinase FLT3 (Homo sapiens, UniProt P36888)
# Sequence (P36888 whole entry): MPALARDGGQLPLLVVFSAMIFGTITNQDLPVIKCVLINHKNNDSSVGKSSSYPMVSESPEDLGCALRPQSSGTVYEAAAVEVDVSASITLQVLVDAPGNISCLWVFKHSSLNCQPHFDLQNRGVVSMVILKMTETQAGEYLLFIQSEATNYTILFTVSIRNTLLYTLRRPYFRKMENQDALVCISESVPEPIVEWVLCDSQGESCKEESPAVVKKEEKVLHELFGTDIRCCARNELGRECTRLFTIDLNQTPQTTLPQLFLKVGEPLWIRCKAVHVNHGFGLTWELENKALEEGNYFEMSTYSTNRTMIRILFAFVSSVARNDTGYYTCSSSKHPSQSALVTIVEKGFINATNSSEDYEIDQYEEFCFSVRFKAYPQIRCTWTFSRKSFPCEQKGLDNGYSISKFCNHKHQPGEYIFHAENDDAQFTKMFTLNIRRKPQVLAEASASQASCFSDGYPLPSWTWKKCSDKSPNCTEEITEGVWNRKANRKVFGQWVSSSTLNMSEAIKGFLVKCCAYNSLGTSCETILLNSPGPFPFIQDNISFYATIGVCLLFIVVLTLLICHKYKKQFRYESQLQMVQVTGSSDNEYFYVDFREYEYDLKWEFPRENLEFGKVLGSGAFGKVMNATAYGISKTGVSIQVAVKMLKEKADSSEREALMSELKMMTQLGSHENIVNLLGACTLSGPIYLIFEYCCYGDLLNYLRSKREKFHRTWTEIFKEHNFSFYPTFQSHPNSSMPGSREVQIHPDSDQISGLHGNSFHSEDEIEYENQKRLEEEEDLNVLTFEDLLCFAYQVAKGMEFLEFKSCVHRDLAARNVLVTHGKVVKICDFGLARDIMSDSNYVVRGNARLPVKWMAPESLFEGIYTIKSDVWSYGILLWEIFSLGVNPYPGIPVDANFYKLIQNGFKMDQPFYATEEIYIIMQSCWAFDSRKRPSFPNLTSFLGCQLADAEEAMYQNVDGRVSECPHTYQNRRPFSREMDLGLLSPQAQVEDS
# ASSAY_COMMENT: Inhibition of FLT3 (unknown origin) using FAM-labeled peptide as substrate preincubated with compound for 10 mins followed by substrate addition and measured after 60 mins in presence of ATP
Value expressed in nM; do not type the unit.

# CHEMICAL_STRING, IC50 (nM)
measured = [
    ("CC(=O)c1ccc(NC(=O)N2CCN(c3nc(Nc4ccc(N5CCOCC5)cc4)ncc3Cl)CC2)cc1", 0.68),
]

Could you please provide reported IC50 for CC(=O)c1ccc(NC(=O)N2CCN(c3ccnc(Nc4ccc(N5CCOCC5)cc4)n3)CC2)cc1 ? Thanks!
1.4

---

# MEASURED_TARGET: Proto-oncogene tyrosine-protein kinase Src (Homo sapiens, UniProt P12931)
# ASSAY_COMMENT: Inhibition of recombinant c-Src (unknown origin) incubated for 120 mins in presence of [33P]-ATP by hotspot assay
PARAMETER_MEASURED: pIC50
By convention, pIC50 is the negative base-10 log of a molar concentration.

Could you please provide reported pIC50 for COc1ccc2c(c1)/C(=C1/Nc3ccccc3/C1=N\OCC(O)CO)C(=O)N2 (stereo unspecified) ? Thanks!
7.98

---

# MEASURED_TARGET: Mitogen-activated protein kinase kinase kinase 9 (Homo sapiens)
# Sequence (P80192 whole entry): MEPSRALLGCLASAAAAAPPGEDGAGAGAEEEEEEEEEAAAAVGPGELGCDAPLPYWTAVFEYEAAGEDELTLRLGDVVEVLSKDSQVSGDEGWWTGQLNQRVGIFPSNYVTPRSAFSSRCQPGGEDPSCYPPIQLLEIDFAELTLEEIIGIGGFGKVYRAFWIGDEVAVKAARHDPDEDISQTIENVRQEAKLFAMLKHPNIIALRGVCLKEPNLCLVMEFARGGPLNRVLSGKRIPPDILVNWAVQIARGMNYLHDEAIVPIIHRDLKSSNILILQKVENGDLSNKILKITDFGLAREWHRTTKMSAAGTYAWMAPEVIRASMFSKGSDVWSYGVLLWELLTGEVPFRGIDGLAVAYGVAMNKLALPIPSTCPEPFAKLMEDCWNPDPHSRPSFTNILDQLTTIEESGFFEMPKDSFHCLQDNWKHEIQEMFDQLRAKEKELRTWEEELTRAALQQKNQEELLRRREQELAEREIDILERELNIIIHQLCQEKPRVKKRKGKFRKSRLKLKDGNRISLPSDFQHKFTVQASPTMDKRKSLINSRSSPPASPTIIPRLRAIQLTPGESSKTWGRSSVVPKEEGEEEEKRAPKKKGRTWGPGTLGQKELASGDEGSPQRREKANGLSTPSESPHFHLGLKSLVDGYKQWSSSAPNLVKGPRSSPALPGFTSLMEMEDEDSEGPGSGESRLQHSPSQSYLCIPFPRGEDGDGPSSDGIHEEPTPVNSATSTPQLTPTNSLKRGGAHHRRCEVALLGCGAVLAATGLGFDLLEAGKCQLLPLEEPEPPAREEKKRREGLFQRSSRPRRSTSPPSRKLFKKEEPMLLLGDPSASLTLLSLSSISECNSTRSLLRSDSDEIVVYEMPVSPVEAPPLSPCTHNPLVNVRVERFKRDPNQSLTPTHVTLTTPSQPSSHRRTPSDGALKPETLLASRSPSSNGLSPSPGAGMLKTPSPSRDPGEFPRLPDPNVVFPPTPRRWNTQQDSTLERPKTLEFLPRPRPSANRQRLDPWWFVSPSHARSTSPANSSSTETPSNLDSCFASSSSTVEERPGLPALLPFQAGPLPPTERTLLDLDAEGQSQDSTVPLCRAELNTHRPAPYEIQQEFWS
# ASSAY_COMMENT: Inhibition of MLK1 (unknown origin)
PARAMETER_MEASURED: IC50 (nM)
Value expressed in nM; do not type the unit.

Could you please provide reported IC50 for CCS(=O)(=O)N1CCN(c2ccc(Nc3ncc(C(N)=O)c(NC4CC4)n3)cc2)CC1 ? Thanks!
4

---

# ASSAY_COMMENT: Inhibition of JAK/STAT signaling pathway in human CD4+ve Th cells assessed as inhibition of IL-2 stimulated STAT5 phosphorylation at Y694 residue preincubated for 1 hr followed by IL-2 stimulation and measured after 15 mins by flow cytometry analysis
# Format: cell-based
pIC50: −log10 of the molar value.
PARAMETER_MEASURED: pIC50

Could you please provide reported pIC50 for CCS(=O)(=O)N1CCN(c2ccc(Nc3ncc(C(N)=O)c(NC4CC4)n3)cc2)CC1 ? Thanks!
> 6.00

---

# MEASURED_TARGET: UniProt P36888
Listed here are compounds together with their documented IC50.
Value expressed in nM; do not type the unit.

# CHEMICAL_STRING, IC50 [nM]
measured = [
    ("COc1ccc2cc1COC/C=C/COCc1cccc(c1)-c1ccnc(n1)N2", 190),
]

Attention now turns to another entry.
Could you please provide reported IC50 for CCS(=O)(=O)N1CCN(c2ccc(Nc3ncc(C(N)=O)c(NC4CC4)n3)cc2)CC1 ? Thanks!
4
